study_system: cap-dependent endonuclease (RNP fraction containing PB1•PB2•PA complex) (Influenza A virus, UniProt P15659)
assay_protocol: biochemical
assay_conditions: RNP from A/WSN/33 virus, capped Cy3/BHQ2 30mer RNA substrate, 60 minutes at room temperature; read-out: CEN IC50
quantity_kind: IC50 (nM)

molecule	unit_label	numeric_result
O=C1c2c(O)c(=O)ccn2N(C2c3ccccc3CSc3ccccc32)CN1Cc1nccs1 (centres unmarked) [Example 316]	nM	69
CC(CN1CCN(C)CC1)N1CN(C2c3ccccc3CSc3ccccc32)n2ccc(=O)c(O)c2C1=O (centres unmarked) [Example 485]	nM	221
CCN1C(=O)c2c(O)c(=O)ccn2C(C(c2ccccc2)c2ccccc2)N1CC (centres unmarked) [Example 498]	nM	161
CC(N1CN(C(c2ccccc2)c2cccc(Cl)c2)n2ccc(=O)c(O)c2C1=O)C(F)(F)F (centres unmarked) [Example 241]	nM	197
C[C@@H](N1CN([C@H]2c3ccc(F)cc3CSc3ccccc32)n2ccc(=O)c(O)c2C1=O)C(F)(F)F [Example 454]	nM	12
Cc1cccc2c1CSc1ccccc1[C@H]2N1CN([C@H](C)C(F)(F)F)C(=O)c2c(O)c(=O)ccn21 [Example 464]	nM	24
C[C@H](N1CN(C2c3ccccc3CSc3ccccc32)n2ccc(=O)c(O)c2C1=O)C(C)(C)C (some centres unmarked) [Example 314]	nM	149
NCC1N(CCO)C(=O)c2c(O)c(=O)ccn2N1C1c2ccccc2CCc2ccccc21 (centres unmarked) [Example 549]	nM	76
